# test.target: Solute carrier family 2, facilitated glucose transporter member 1 (Homo sapiens) (UniProt P11166)
# Sequence (P11166 whole entry): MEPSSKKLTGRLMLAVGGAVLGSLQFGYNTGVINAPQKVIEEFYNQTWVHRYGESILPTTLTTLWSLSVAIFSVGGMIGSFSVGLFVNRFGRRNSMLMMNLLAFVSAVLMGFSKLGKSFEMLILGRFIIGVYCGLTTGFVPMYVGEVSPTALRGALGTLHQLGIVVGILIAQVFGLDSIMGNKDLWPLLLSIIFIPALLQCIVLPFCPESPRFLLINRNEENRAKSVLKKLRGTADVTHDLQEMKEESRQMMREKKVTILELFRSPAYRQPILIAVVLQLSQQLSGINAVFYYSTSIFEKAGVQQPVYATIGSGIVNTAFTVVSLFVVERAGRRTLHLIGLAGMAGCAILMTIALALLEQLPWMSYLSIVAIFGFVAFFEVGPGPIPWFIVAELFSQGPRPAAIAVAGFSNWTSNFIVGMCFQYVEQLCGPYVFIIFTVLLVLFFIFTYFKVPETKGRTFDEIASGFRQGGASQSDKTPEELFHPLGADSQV
# assay.text: ST_JUDE_LEISH: Cytotoxicity at 2uM final concentration against transgenic Leishmania Mexicana promastigotes LmGLUT1 that are glucose transport deficient and complemented with the human glucose transporter GLUT1. Activity is measured by DNA content using SYBR green in vitro
# Type: functional
Task for the reader: assign each of the following compounds its reported inhibition.
I only need the number, in %, no unit after it.

# return recorded inhibition for input CC(=O)N1N=C(c2cccs2)Sc2c1nc(-c1ccc(Cl)cc1)n2C(C)=O
11.9

# return recorded inhibition for input CCCC(C)NC(=O)[C@H](CC1CCCCC1)NC(=O)c1ccc(O)c(-c2cccc(C(F)(F)F)c2)c1 (stereo not given in full)
-1.37

# return recorded inhibition for input CCOc1cc2c(cc1OCC)C(c1ccc(O)c(Cl)c1)NCC2 (stereo not given)
11.9

# return recorded inhibition for input CC(Sc1nc(-c2ccccc2)c(-c2ccccc2)o1)C(=O)NC1CC1 (stereo not given)
-2

# return recorded inhibition for input O=C(NCc1cccs1)[C@H](Cc1ccccc1)Nc1ccnc(NCCc2ccccc2)n1
-0.12

# return recorded inhibition for input COc1ccc(Nc2nc(NC3CCN(Cc4ccccc4)CC3)cc(-c3ccncc3)n2)cc1
-0.03

# return recorded inhibition for input CC(C)(C)c1ccc(-c2cc3c(ccc4nc(N)nc(N)c43)[nH]2)cc1
1.02

# return recorded inhibition for input CN1CCC(N2CCN(C(=O)c3cccc(-c4cccc(-c5nc6ccccc6[nH]5)c4)c3)CC2)CC1
0.86

# return recorded inhibition for input OC(CNC1CCCCC1)Cn1c2ccc(Br)cc2c2cc(Br)ccc21 (stereo not given)
0.51

# return recorded inhibition for input COc1ccc(CNCc2cccc(-c3cccc(-c4nc5cc(C(F)(F)F)ccc5[nH]4)c3)c2)cc1
5.4

# return recorded inhibition for input Cc1cccc(CNc2nc(C)cc(N[C@@H](CC(C)C)C(=O)NCCOc3ccccc3)n2)c1
4.29

# return recorded inhibition for input COc1cc(C(=O)N2N=C(c3c(-c4ccccc4)c4cc(Br)ccc4[nH]c3=O)CC2c2cccc([N+](=O)[O-])c2)cc(OC)c1OC (stereo not given)
3.48

# return recorded inhibition for input Cc1nc2nc(N)nc(N)c2c(C)c1Cc1ccc(C#N)cc1
0.34

# return recorded inhibition for input Cc1ccccc1CCNC(=O)c1cnc(N2CCN(c3ccncc3)CC2)c(Cl)c1
79

# return recorded inhibition for input O=C(NC1CC1)c1ccc(Cn2c(SCc3cccc(Cl)c3)nc3ccccc3c2=O)cc1
0.42

# return recorded inhibition for input CN(C)c1ccc(NC(=O)Nc2ccnc3ccc(Br)cc23)cc1
2.25

# return recorded inhibition for input Cn1cc(CCNc2ccnc(N3CCC(c4ncc[nH]4)CC3)n2)c2ccccc21
-2.77

# return recorded inhibition for input CC(C)COc1cc(C(=O)Nc2cnc3ccccc3c2)ccc1[N+](=O)[O-]
11.9

# return recorded inhibition for input Cc1[nH]n(-c2cccc(C(F)(F)F)c2)c(=O)c1-c1ccc(Cl)cc1
3.56

# return recorded inhibition for input COc1ccc(-n2ccnc2SCC(=O)Nc2cc(C)ccc2C)c(OC)c1
0.44

###

# test.target: Glucose transporter (Leishmania mexicana) (UniProt O61059)
# assay.text: ST_JUDE_LEISH: Cytotoxicity at 2uM final concentration against transgenic Leishmania Mexicana promastigotes LmGT2 that are glucose transport deficient and complemented with the L. Mexicana glucose transporter 2. Activity is measured by DNA content using SYBR green in vitro
# Format: functional
measurement.name: inhibition (%)
I only need the number, in %, no unit after it.

# return recorded inhibition for input CN1CCN(CC(=O)Nc2ccc(-c3csc(-c4nc5ccccc5[nH]4)c3)cc2)CC1
-2.28

# return recorded inhibition for input C[C@H](Cc1ccc(OCCCCCCOc2ccc(C[C@@H](C)N[C@H](C)c3ccccc3)cc2)cc1)NC[C@H](O)c1cccc(Cl)c1
82.4

# return recorded inhibition for input CC1=C(C(=O)Nc2cc3cn[nH]c3cc2F)C(c2cccc(O)c2F)CC(=O)N1 (centres undefined)
0.72

# return recorded inhibition for input CCNC(=O)CCc1cccc(Br)c1
-1.62

# return recorded inhibition for input Cn1cncc1C(=O)Nc1ccc(-c2ccc(-c3nc4cc(C(F)(F)F)ccc4[nH]3)cc2)cc1
4.64

# return recorded inhibition for input CCN(CCO)Cc1ccc(-c2ccc(NS(=O)(=O)c3cccc4cccnc34)cc2)cc1
92.4

# return recorded inhibition for input CC(CN(C)C)C(=O)Nc1cccc(-c2cccc(-c3nc4cc(F)ccc4[nH]3)c2)c1 (centres undefined)
-3.91

# return recorded inhibition for input O=C(NCCCCN1CCC(c2ccc3ccccc3c2O)CC1)c1ccc(-c2ccc(Cl)cc2)cc1
3.45

# return recorded inhibition for input Cc1cc(N)c2cc(NC(=O)c3ccc4ccccc4c3)ccc2n1
3.57

# return recorded inhibition for input Cc1ccc(NC(=O)C2CCC2)cc1-c1ccc(C(=O)NCC2CC2)cc1
0.3

# return recorded inhibition for input COc1ccc2c(c1C1CCN(CCCCNC(=O)c3ccc(NC(=O)c4ccc(Cl)cc4)cc3)CC1)CCCC2
-1.07

# return recorded inhibition for input COc1cc(NC(=O)Nc2cc(C)nc3ccccc23)cc(OC)c1
2.05

# return recorded inhibition for input COc1ccc2ncc(F)c([C@@H](O)CN3CCC(NCc4cc5c(cn4)OCCO5)CC3)c2c1
3.93

# return recorded inhibition for input CN1CCC(N(Cc2ccc(-c3ccc(Cl)cc3)cc2)C(=O)Cn2c(CCc3cccc(F)c3F)cc(=O)c3ccccc32)CC1
8.07

# return recorded inhibition for input Cc1cccc2nc(-c3cccc(-c4ccc(CNCCCN5CCCC5=O)cc4)c3)[nH]c12
6.5

# return recorded inhibition for input Cc1nc(-c2cccc(NC(C)C(=O)Nc3cc(C(F)(F)F)ccc3N3CCOCC3)c2)cs1 (centres undefined)
0.96

# return recorded inhibition for input CCN(CC)CCn1c2ccccc2c2ccc(C(=O)Nc3ccc4sc(C)nc4c3)cc21
8.05

# return recorded inhibition for input O=C(NCCCCCN1CCC(c2ccc(O)cc2)CC1)c1ccc(-c2ccccc2)cc1
6

# return recorded inhibition for input Fc1ccc2[nH]c(-c3ccc(-c4ccc(CN5CCCCC5)cc4)s3)nc2c1
1.79
